# Test system: A549
# METHOD: Cytotoxicity against human A549 cells after 96 hrs by MTT assay
# Format: functional, cell-based
Give measured IC50 for each item. Keep answers brief.
Answers are plain numbers, in µM.

Known IC50 results, listed for orientation:
Field IC50 (A549), entry Oc1cc(Cc2cc(O)c(O)c(Br)c2Br)c(Br)c(Br)c1O : 1.8

Field IC50 (A549), entry COCc1cc(O)c(O)c(Br)c1Cc1cc(O)c(O)c(Br)c1Br : 5.4

New cases:
Field IC50 (A549), entry COCc1c(Br)c(Br)c(O)c(O)c1Cc1cc(O)c(O)c(Br)c1Br : 2.5

----------
# Test system: MCF7
# METHOD: Cytotoxicity against human MCF7 cells after 96 hrs by MTT assay
# Format: functional, cell-based
Give measured IC50 for each item. Keep answers brief.
Numbers only, in µM.

Known IC50 results, listed for orientation:
IC50 in this record for COCc1c(Br)c(Br)c(O)c(O)c1Cc1cc(O)c(O)c(Br)c1Br : 2.7

IC50 in this record for Oc1cc(COCc2cc(O)c(O)c(Br)c2Br)c(Br)c(Br)c1O : 21.4

IC50 in this record for CCOCc1cc(O)c(O)c(Br)c1Cc1cc(O)c(O)c(Br)c1Br : 3.4

IC50 in this record for COCc1cc(O)c(O)c(Br)c1Cc1cc(O)c(O)c(Br)c1Br : 4.6

Consider now this further compound.
IC50 in this record for Oc1cc(Cc2cc(O)c(O)c(Br)c2Br)c(Br)c(Br)c1O : 2.7

Reference for the values: ChEMBL document CHEMBL1148917
